These data points were gathered from patent US20240400701A1.

Top (MFI) reference
Molecular target: T1, human AMHRII (anti-Mullerian hormone receptor type 2) (human, UniProt Q16671 18-573)
T1 construct: whole, on cells; also called AMHR2; human AMHR2
T1 sequence (looked up): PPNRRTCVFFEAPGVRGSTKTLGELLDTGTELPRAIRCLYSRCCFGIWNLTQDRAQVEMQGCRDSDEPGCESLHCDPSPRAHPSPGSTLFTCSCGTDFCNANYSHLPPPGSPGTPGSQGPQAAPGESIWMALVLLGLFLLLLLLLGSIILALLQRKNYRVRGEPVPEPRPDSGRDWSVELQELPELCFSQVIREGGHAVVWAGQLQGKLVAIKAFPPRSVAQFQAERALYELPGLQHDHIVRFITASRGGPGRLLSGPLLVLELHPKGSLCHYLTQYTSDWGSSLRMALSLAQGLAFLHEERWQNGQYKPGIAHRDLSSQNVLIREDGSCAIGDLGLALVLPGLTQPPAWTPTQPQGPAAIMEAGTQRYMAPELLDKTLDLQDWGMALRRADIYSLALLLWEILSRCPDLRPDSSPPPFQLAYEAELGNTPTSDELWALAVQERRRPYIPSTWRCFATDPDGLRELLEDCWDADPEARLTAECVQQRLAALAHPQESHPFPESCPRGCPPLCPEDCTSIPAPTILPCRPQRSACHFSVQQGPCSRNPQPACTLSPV
Assay: FACS on CHO-K1 cells over-expressing human AMHR2
Procedure: CHO-K1 cells over-expressed AMHR2 were harvested from flasks. 100 μl of 1×10⁶ cells/ml of cells were incubated with the humanized antibodies in 3-fold serial dilutions starting from 300 nM to 0.001 nM for 30 minutes on ice. After being washed with 200 μl of FACS buffer twice, cells were incubated with secondary antibody for 30 minutes on ice. Cells were washed with 200 μl of FACS buffer twice and analyzed by FACS.
Please reply with the bare figure in MFI and do not write the unit itself.

Would you please look over these solved cases?
BINDER: 31D9B3 VH1.1-VL2 hIgG1 (antibody, V domains shown, Humanized, PTM de-risked (VH N54E), human IgG1; also called 31D9B3 VH1.1-VL2 hlgG1) VH: QVQLVQSGAEVKKPGASVKVSCKASGYTFTDYWVSWVRQAPGQGLEWMGEIYPKEGVSNFNEKFKGRVTMTTDTSTSTAYMELRSLRSDDTAVYYCARQRDYWGQGTLVTVSS VL: DVVMTQSPLSLPVTLGQPASISCRSSQSLEYGDGYTYLEWYLQRPGQSPRLLIYGVSNRFSGVPDRFSGSGSGTDFTLKISRVEAEDVGVYYCFQATHDPNTFGQGTKLEIK
QUANTITATIVE READOUT: 16800

BINDER: 31D9B3 VH1-VL2.3 hIgG1 (antibody, V domains shown, Humanized, PTM de-risked (VL D(30C)T), human IgG1; also called 31D9B3 VH1-VL2.3 hlgG1) VH: QVQLVQSGAEVKKPGASVKVSCKASGYTFTDYWVSWVRQAPGQGLEWMGEIYPKNGVSNFNEKFKGRVTMTTDTSTSTAYMELRSLRSDDTAVYYCARQRDYWGQGTLVTVSS VL: DVVMTQSPLSLPVTLGQPASISCRSSQSLEYGTGYTYLEWYLQRPGQSPRLLIYGVSNRFSGVPDRFSGSGSGTDFTLKISRVEAEDVGVYYCFQATHDPNTFGQGTKLEIK
QUANTITATIVE READOUT: 12500

BINDER: xi108F3D1E9 hIgG1 (antibody, V domains shown, Murine variable domains in human chimeric format, human IgG1; also called xi108F3D1E9 hlgG1; 108F3D1E9 (chimeric)) VH: DVQLQESGPGLVKPSQSLSLTCTVTGYSITSDFAWNWIRQFPGNKLEWMGYINFSGSTSYNPSLKSRISITRDTSKNQFFLQLNSVTTEDTATYYCAGSRYSWFAYWGQGTLVTVSA VL: DIVLTQSPASLAVSLGQRATISCRASESVDTYGNSFMHWYQQKPGQPPKLLIYRASNLESGIPARFSGSGSRTDFTLTINPVEADDVATYYCQQSNEDPYTFGGGTKLEIK
QUANTITATIVE READOUT: 74400

BINDER: xi94C4C3 hIgG1 (antibody, V domains shown, Murine variable domains in human chimeric format, human IgG1; also called xi94C4C3 hlgG1; 94C4C3 (chimeric)) VH: DVQLQESGPGLVKPSQSLSLTCTVTGYSITSDYAWNWIRQFPGNKLEWMGYISYSGSISYNPSLKSRISITRDTSKNQFFLQLNSVTTEDTATYYCARSRYSWFDYWGQGTLVTVSA VL: DIVLTQSPTSLAVSLGQRATLSCSASESVDTYGNSFMHWYQQKPGQPPKLLIYRASSLESGIPVRFSGSGSRTDFTLTINPVEAADVATYYCQQSNEDPYTFGGGTKLEIK
QUANTITATIVE READOUT: 54900

BINDER: 108F3D1E9 H2L1 hIgG1 (antibody, V domains shown, Humanized, human IgG1; also called 108F3D1E9 H2L1 hlgG1) VH: QLQLQESGPGLVKPSETLSLTCTVSGYSITSDFAWNWIRQPPGKGLEWMGYISFSGSTSYNPSLKSRVTISRDTSKNQFSLKLSSVTAADTAVYYCAGSRYSWFAYWGQGTLVTVSS VL: DIQMTQSPSSLSASVGDRVTITCRASESVDTYGNSFMHWYQQKPGKAPKLLIYRASNLESGVPSRFSGSGSGTDFTLTISSLQPEDFATYYCQQSNEDPYTFGGGTKVEIK
QUANTITATIVE READOUT: 64400

BINDER: 108F3D1E9 H1L4 hIgG1 (antibody, V domains shown, Humanized, human IgG1; also called 108F3D1E9 H1L4 hlgG1) VH: QLQLQESGPGLVKPSETLSLTCTVSGYSITSDFAWNWIRQPPGKGLEWIGYISFSGSTSYNPSLKSRVTISVDTSKNQFSLKLSSVTAADTAVYYCARSRYSWFAYWGQGTLVTVSS VL: DIVLTQSPSSLSVSVGDRATITCRASESVDTYGNSFMHWYQQKPGQPPKLLIYRASNLESGIPARFSGSGSRTDFTLTISSVQPEDFATYYCQQSNEDPYTFGGGTKLEIK
QUANTITATIVE READOUT: 70900

BINDER: 108F3D1E9 H2L4 hIgG1 (antibody, V domains shown, Humanized, human IgG1; also called 108F3D1E9 H2L4 hlgG1) VH: QLQLQESGPGLVKPSETLSLTCTVSGYSITSDFAWNWIRQPPGKGLEWMGYISFSGSTSYNPSLKSRVTISRDTSKNQFSLKLSSVTAADTAVYYCAGSRYSWFAYWGQGTLVTVSS VL: DIVLTQSPSSLSVSVGDRATITCRASESVDTYGNSFMHWYQQKPGQPPKLLIYRASNLESGIPARFSGSGSRTDFTLTISSVQPEDFATYYCQQSNEDPYTFGGGTKLEIK
QUANTITATIVE READOUT: 70600

BINDER: 94C4C3 H2L2 hIgG1 (antibody, V domains shown, Humanized, human IgG1; also called 94C4C3 H2L2 hlgG1) VH: QLQLQESGPGLVKPSETLSLTCTVSGYSITSDYAWNWIRQPPGKGLEWMGYISYSGSISYNPSLKSRITISRDTSKNQFSLKLSSVTAADTAVYYCARSRYSWFDYWGQGTLVTVSS VL: EIVLTQSPGTLSLSPGERATLSCSASESVDTYGNSFMHWYQQKPGQPPRLLIYRASSLESGIPVRFSGSGSRTDFTLTISRLEPEDFAVYYCQQSNEDPYTFGGGTKVEIK
QUANTITATIVE READOUT: 56600

BINDER: 94C4C3 H2L4 hIgG1 (antibody, V domains shown, Humanized, human IgG1; also called 94C4C3 H2L4 hlgG1) VH: QLQLQESGPGLVKPSETLSLTCTVSGYSITSDYAWNWIRQPPGKGLEWMGYISYSGSISYNPSLKSRITISRDTSKNQFSLKLSSVTAADTAVYYCARSRYSWFDYWGQGTLVTVSS VL: DIVLTQSPGTLSVSPGERATLSCSASESVDTYGNSFMHWYQQKPGQPPKLLIYRASSLESGIPVRFSGSGSRTDFTLTISRVEAEDFAVYYCQQSNEDPYTFGGGTKLEIK
QUANTITATIVE READOUT: 52500

Next item in the queue.
Prompt: Specify measured Top (MFI) for 108F3D1E9 H1L3 hIgG1 (antibody, V domains shown, Humanized, human IgG1; also called 108F3D1E9 H1L3 hlgG1) VH: QLQLQESGPGLVKPSETLSLTCTVSGYSITSDFAWNWIRQPPGKGLEWIGYISFSGSTSYNPSLKSRVTISVDTSKNQFSLKLSSVTAADTAVYYCARSRYSWFAYWGQGTLVTVSS VL: DIVLTQSPSSLSASVGDRVTITCRASESVDTYGNSFMHWYQQKPGQPPKLLIYRASNLESGIPARFSGSGSGTDFTLTISSVQPEDFATYYCQQSNEDPYTFGGGTKVEIK .
Response: 66700
